*1 amine or outer side, *2 acyl side, *3 side chain or, on linkers, in order; H or OH if unused. Where a SMILES comes first, the peptide text is derived from it. Bridges are numbered along the chain shown (N, C = ends). [ ]: non-standard residue; d: D form. NGly(3-aminopropyl) = O=C(CN(CCCN[*:3])[*:1])[*:2]; N(2-Aminoethyl)Gly = O=C(CN(CCN[*:3])[*:1])[*:2]; Gly(N-2-aminoethyl) = NCCNCC(=O)O; Cha = N[C@@H](CC1CCCCC1)C(=O)O; hLeu = CC(C)CC[C@H](N)C(=O)O; Nva = CCC[C@H](N)C(=O)O; Dap = NC[C@H](N)C(=O)O; CO = O=C([*:1])[*:2]; Nlys = NCCCCNCC(=O)O
Here's a batch of molecules along with measured IC50 for RAC-alpha serine/threonine-protein kinase (Homo sapiens).
# value in nM; strip the unit string

Would you please look over these solved cases?
CCC[C@H](NC(=O)[C@H](CCCN=C(N)N)NC(=O)[C@H](CC1CCCCC1)NC(=O)[C@@H](N)CCCN=C(N)N)C(=O)N[C@@H](Cc1ccc(O)cc1)C(=O)N[C@@H](CN)C(=O)N[C@@H](CCC(C)C)C(N)=O (H-R[Cha]R[Nva]Y[Dap][hLeu]-NH2)	950
CCC[C@H](NC(=O)[C@H](CCCN=C(N)N)NC(=O)CN(CCCCN)C(=O)[C@@H](N)CCCN=C(N)N)C(=O)N[C@@H](Cc1ccc(O)cc1)C(=O)N[C@@H](CN)C(=O)N[C@@H](CCC(C)C)C(=O)N(CCN)CC(N)=O (H-R[Nlys]R[Nva]Y[Dap][hLeu][Gly(N-2-aminoethyl)]-NH2)	220

// below: IC50 requested for another molecule
// lookup IC50 | system=RAC-alpha serine/threonine-protein kinase (Homo sapiens) | key= CCC[C@@H]1NC(=O)[C@H](CCCNC(=N)N)NC(=O)CNCCCNC(=O)NCCN(CC(N)=O)C(=O)[C@H](CCC(C)C)NC(=O)[C@H](CN)NC(=O)[C@H](Cc2ccc(O)cc2)NC1=O (H-[NGly(3-aminopropyl)]R[Nva]Y[Dap][hLeu][N(2-Aminoethyl)Gly]-NH2; linker 1-7 via CO) 240
